protocol.text: MTT assay in BJ1 cells
Assay type: cell-based
assay.conditions: human, hTERT-BJ1-PTERT(3.4)-SEAP cells; BJ1; compound concentration 10 μM; read-out: MTT (Inhibition μM ± SD)
Method: A total of 2×10^3 […] cells were seeded in the 96-well cell culture plate, and incubated with DMEM (GIBCO®)/glucose mixture and Medium 199 (GIBCO®)/10% FBS/1 mM sodium pyruvate (GIBCO®)/4 mM L-glutamine (GIBCO®) mixture at a ratio of 4:1 at 37° C. for 24 hours. […] This crystal can be dissolved in the organic solvent, and has high absorbance at the wavelength of 570 nm. […] The absorbance at 570 nm was determined by the ELISA reader.
// NB: equality with 80% counts as Condition not met; only viability at 48 h, 10 µM strictly below is Condition met

Solved cases (4 shown):
CCNCCC(=O)Nc1ccc2c(c1)C(=O)c1cc(NC(=O)CCNCC)ccc1C2=O = Condition met
O=C1c2ccc(NC(=O)C3CCCCC3)cc2C(=O)c2cc(NC(=O)C3CCCCC3)ccc21 = Condition met
CCN(CC)CCC(=O)Nc1ccc2c(c1)C(=O)c1cc(NC(=O)CCN(CC)CC)ccc1C2=O = Condition met
O=C(Nc1ccc2c(c1)C(=O)c1cc(NC(=O)c3ccccc3)ccc1C2=O)c1ccccc1 = Condition not met

Kindly consider the entry below.
Lookup: Is the reported viability at 48 h, 10 µM for CCNCC(=O)Nc1ccc2c(c1)C(=O)c1cc(NC(=O)CNCC)ccc1C2=O strictly below 80%?
Found: Condition met

----------
protocol.text: MTT assay in BJ1 cells
Format: cell-based
assay.conditions: human, hTERT-BJ1-PTERT(3.4)-SEAP cells; BJ1; compound concentration 1 μM; read-out: MTT (Inhibition μM ± SD)
reported.property: viability at 48 h, 1 µM (%)
Express it in %; write the number only.

Lookup: Endpoint output: viability at 48 h, 1 µM of CCNCCC(=O)Nc1ccc2c(c1)C(=O)c1cc(NC(=O)CCNCC)ccc1C2=O [Compound 22] . Value?
Found: 82

Lookup: Then CCNCC(=O)Nc1ccc2c(c1)C(=O)c1cc(NC(=O)CNCC)ccc1C2=O [Compound 10] ?
Found: 72

Lookup: Then CN1CCN(CC(=O)Nc2ccc3c(c2)C(=O)c2cc(NC(=O)CN4CCN(C)CC4)ccc2C3=O)CC1 [Compound 11] ?
Found: 86

Lookup: Then CC(C)CNCC(=O)Nc1ccc2c(c1)C(=O)c1cc(NC(=O)CNCC(C)C)ccc1C2=O [Compound 14] ?
Found: 107

----------
Test system: HCT-116
protocol.text: In vitro cytotoxicity, Development Therapeutics Program
Format: cell-based
assay.conditions: HCT-116, colon cancer; 1.0×10^−5 M
// NB: equality with 20% counts as no; only Cellular growth rate (%) strictly below is yes

Solved cases (4 shown):
CN(C)CC(=O)Nc1ccc2c(c1)C(=O)c1cc(NC(=O)CN(C)C)ccc1C2=O = yes
O=C1c2ccc(NC(=O)C3CC3)cc2C(=O)c2cc(NC(=O)C3CC3)ccc21 = no
O=C(CCN1CCCC1)Nc1ccc2c(c1)C(=O)c1cc(NC(=O)CCN3CCCC3)ccc1C2=O = yes
CCN(CC)CCC(=O)Nc1ccc2c(c1)C(=O)c1cc(NC(=O)CCN(CC)CC)ccc1C2=O = yes

Kindly consider the entry below.
Lookup: Is the reported Cellular growth rate (%) for CC(=O)Nc1ccc2c(c1)C(=O)c1cc(NC(C)=O)ccc1C2=O strictly below 20%?
Found: no

----------
protocol.text: MTT assay in H1299 cells
Type: cell-based
assay.conditions: human, H1299 cells (H1299/PhTERT-driven SEAP reporter system); H1299; compound concentration 1 μM; read-out: MTT (Inhibition μM ± SD)
reported.property: viability at 24 h, 1 µM (%)
Express it in %; write the number only.

A selection of reference data follows.
CCCC(=O)Nc1ccc2c(c1)C(=O)c1cc(NC(=O)CCC)ccc1C2=O = 93
O=C(CCc1ccccc1)Nc1ccc2c(c1)C(=O)c1cc(NC(=O)CCc3ccccc3)ccc1C2=O = 102

Switching to the query record.
Lookup: Endpoint output: viability at 24 h, 1 µM of CC(=O)Nc1ccc2c(c1)C(=O)c1cc(NC(C)=O)ccc1C2=O . Value?
Found: 117

----------
Tested on: SK-OV-3
protocol.text: In vitro cytotoxicity, Development Therapeutics Program
Type: cell-based
assay.conditions: SK-OV-3, ovarian cancer; 1.0×10^−5 M
reported.property: Cellular growth rate (%)
Express it in %; write the number only.

A selection of reference data follows.
O=C1c2ccc(NC(=O)C3CC3)cc2C(=O)c2cc(NC(=O)C3CC3)ccc21 [Compound 32] = 93.16
CC(=O)Nc1ccc2c(c1)C(=O)c1cc(NC(C)=O)ccc1C2=O [Compound 26, 2,7-Bis(acetamido)anthraquinone] = 101.12
CN(C)CC(=O)Nc1ccc2c(c1)C(=O)c1cc(NC(=O)CN(C)C)ccc1C2=O [Compound 8] = 70.26
CCN(CC)CCC(=O)Nc1ccc2c(c1)C(=O)c1cc(NC(=O)CCN(CC)CC)ccc1C2=O [Compound 16] = 44.02

Switching to the query record.
Lookup: Endpoint output: Cellular growth rate (%) of O=C(CCN1CCCC1)Nc1ccc2c(c1)C(=O)c1cc(NC(=O)CCN3CCCC3)ccc1C2=O [Compound 18] . Value?
Found: 27.14

----------
Tested on: hTERT expression
protocol.text: SEAP assay in hTERT-BJ1-PTERT(3.4)-SEAP cells
Type: cell-based
assay.conditions: Homo sapiens; BJ1; compound concentration 1 μM; read-out: SEAP (Inhibition μM ± SD)
Below is a list of entries, each paired with its recorded activity at 1 µM value.
Express it in %; write the number only.

O=C1c2ccc(NC(=O)C3CCCCC3)cc2C(=O)c2cc(NC(=O)C3CCCCC3)ccc21 [Compound 34] = 14
O=C(Cc1ccccc1)Nc1ccc2c(c1)C(=O)c1cc(NC(=O)Cc3ccccc3)ccc1C2=O [Compound 30, 2,7-Bis(phenylacetamido)anthraquinone] = 85

Lookup: Endpoint output: activity at 1 µM of O=C(CCN1CCNCC1)Nc1ccc2c(c1)C(=O)c1cc(NC(=O)CCN3CCNCC3)ccc1C2=O [Compound 24] . Value?
Found: 163

Lookup: Then O=C(CN1CCCCC1)Nc1ccc2c(c1)C(=O)c1cc(NC(=O)CN3CCCCC3)ccc1C2=O [Compound 7] ?
Found: 118

Lookup: Then CC(C)CNCC(=O)Nc1ccc2c(c1)C(=O)c1cc(NC(=O)CNCC(C)C)ccc1C2=O [Compound 14] ?
Found: 83

Lookup: Then O=C(CCN1CCCCC1)Nc1ccc2c(c1)C(=O)c1cc(NC(=O)CCN3CCCCC3)ccc1C2=O [Compound 19] ?
Found: 186

Lookup: Then O=C(CCc1ccccc1)Nc1ccc2c(c1)C(=O)c1cc(NC(=O)CCc3ccccc3)ccc1C2=O [Compound 31, 2,7-Bis(phenylpropionamido)anthraquinone] ?
Found: 74

Lookup: Then O=C1c2ccc([N+](=O)[O-])cc2C(=O)c2cc([N+](=O)[O-])ccc21 [Compound 1, 2,7-dinitroanthraquinone] ?
Found: 55

Lookup: Then CCCCNCCC(=O)Nc1ccc2c(c1)C(=O)c1cc(NC(=O)CCNCCCC)ccc1C2=O [Compound 17] ?
Found: 88

Lookup: Then O=C(CCCCl)Nc1ccc2c(c1)C(=O)c1cc(NC(=O)CCCCl)ccc1C2=O [Compound 25, 2,7-Bis(4-chlorobutyramido)anthraquinone] ?
Found: 13

Lookup: Then CCN(CC)CCC(=O)Nc1ccc2c(c1)C(=O)c1cc(NC(=O)CCN(CC)CC)ccc1C2=O [Compound 16] ?
Found: 84

Lookup: Then CN1CCN(CC(=O)Nc2ccc3c(c2)C(=O)c2cc(NC(=O)CN4CCN(C)CC4)ccc2C3=O)CC1 [Compound 11] ?
Found: 61

Lookup: Then CCCCNCC(=O)Nc1ccc2c(c1)C(=O)c1cc(NC(=O)CNCCCC)ccc1C2=O [Compound 5] ?
Found: 27

Lookup: Then CCN(CC)CC(=O)Nc1ccc2c(c1)C(=O)c1cc(NC(=O)CN(CC)CC)ccc1C2=O [Compound 4] ?
Found: 26

Lookup: Then CCC(=O)Nc1ccc2c(c1)C(=O)c1cc(NC(=O)CC)ccc1C2=O [Compound 27, 2,7-Bis(propionamido)anthraquinone] ?
Found: 78

Lookup: Then O=C(Nc1ccc2c(c1)C(=O)c1cc(NC(=O)c3ccccc3)ccc1C2=O)c1ccccc1 [Compound 29, 2,7-Bis(benzoamido)anthraquinone] ?
Found: 89

----------
Tested on: BJ1
protocol.text: MTT assay in BJ1 cells
Type: cell-based
assay.conditions: 100 µM
reported.property: viability (%)
Express it in %; write the number only.

Lookup: Endpoint output: viability of O=C1c2ccc(NC(=O)C3CCCC3)cc2C(=O)c2cc(NC(=O)C3CCCC3)ccc21 . Value?
Found: 58

----------
Below is a list of entries, each paired with its recorded Cellular growth rate (%) value.
Test system: ACHN
protocol.text: In vitro cytotoxicity, Development Therapeutics Program
Assay type: cell-based
assay.conditions: renal cancer, 1.0×10^−5 M
Express it in %; write the number only.

O=C(CCN1CCCC1)Nc1ccc2c(c1)C(=O)c1cc(NC(=O)CCN3CCCC3)ccc1C2=O = 29.65
CN(C)CC(=O)Nc1ccc2c(c1)C(=O)c1cc(NC(=O)CN(C)C)ccc1C2=O = 66.43
CC(=O)Nc1ccc2c(c1)C(=O)c1cc(NC(C)=O)ccc1C2=O = 96.93

Lookup: For the record CCN(CC)CCC(=O)Nc1ccc2c(c1)C(=O)c1cc(NC(=O)CCN(CC)CC)ccc1C2=O , what value of Cellular growth rate (%) is listed for ACHN?
Found: 11.09

Lookup: Then O=C1c2ccc(NC(=O)C3CC3)cc2C(=O)c2cc(NC(=O)C3CC3)ccc21 ?
Found: 86.70
